- Procedure Summary: Acute toxicity after oral administration to rats (LD50)
- Format: in vivo, rat
- Conditions Used: rat, in vivo, male animals
Result Type: LD50 (mg/kg)
Just the number please, in mg/kg, no unit attached.

The measured LD50 associated with COc1ccc(C(=O)O)cc1 reads 1810

Reference source for all entries: patent US20030073744A1
